# STUDY TARGET: NUCB1 (Homo sapiens, UniProt Q02818)
# Sequence (Q02818 27-461): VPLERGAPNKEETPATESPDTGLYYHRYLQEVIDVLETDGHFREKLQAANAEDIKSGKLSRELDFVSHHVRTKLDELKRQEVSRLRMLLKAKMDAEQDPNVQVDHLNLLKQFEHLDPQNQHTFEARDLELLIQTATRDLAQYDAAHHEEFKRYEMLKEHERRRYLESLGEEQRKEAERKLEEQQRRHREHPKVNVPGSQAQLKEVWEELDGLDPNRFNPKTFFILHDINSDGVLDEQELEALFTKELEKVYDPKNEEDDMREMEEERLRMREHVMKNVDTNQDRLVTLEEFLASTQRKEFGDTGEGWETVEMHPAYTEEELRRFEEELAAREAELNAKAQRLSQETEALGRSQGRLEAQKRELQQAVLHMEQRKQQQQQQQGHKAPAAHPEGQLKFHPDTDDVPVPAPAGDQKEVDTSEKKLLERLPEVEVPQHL
# REPORTED CONDITIONS: read-out: IC50, blockade of AEA-DA probe labeling of NUCB1; AEA-DA 5 μM; NUCB1 0.25 μM in HEK293T lysates 0.75 mg/mL
ASSAY METRIC: pIC50
The scale used: pIC50 is minus the common logarithm of the concentration in molar units.

### Prompt Please look up its pIC50: CN1CCN(C(=O)c2[nH]c3ccc([N+](=O)[O-])cc3c2-c2ccccc2)CC1 [MJN228]
### Response 5.48

Next:
### Prompt // lookup pIC50 for CN1CCN(C(=O)c2c(-c3ccccc3)c3cc([N+](=O)[O-])ccc3n2C)CC1 [KML110]
### Response 5.02
